Test system: KP-N-RT-BM-1
assay_summary: SANGER: Inhibition of human KP-N-RT-BM-1 cell growth in a cell viability assay.
Format: functional, cell-based
assay_endpoint: pIC50
Give bare numbers, as −log10 of the molar value.

// query pIC50 value for entry COc1cc2ncn(-c3cc(OCc4ccccc4C(F)(F)F)c(C(N)=O)s3)c2cc1OC [GW843682X]
6.88

* * *

Test system: ALL-PO
assay_summary: cells
Format: functional, cell-based, Homo sapiens
condition_notes: Homo sapiens, ALL-PO
Description: SANGER: Inhibition of human ALL-PO cell growth in a cell viability assay.
Consider the following compounds; for each one, report its pIC50.
One number for each entry, as −log10 of the molar value.

>>> number("CN(C)C(=N)NC(=N)N [METFORMIN]")
2.54

Lab note: next compound to report on.
Please provide the recorded pIC50 for COc1cc(N2CCN(C)CC2)ccc1Nc1ncc2c(n1)N(C)c1ccccc1C(=O)N2C , tested on ALL-PO.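 Also: growth inhibition of ALL-PO cells, read out by a cell viability assay.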
5.24
